Assay target: Solute carrier family 2, facilitated glucose transporter member 1 (Homo sapiens) (UniProt P11166)
Sequence (P11166 whole entry): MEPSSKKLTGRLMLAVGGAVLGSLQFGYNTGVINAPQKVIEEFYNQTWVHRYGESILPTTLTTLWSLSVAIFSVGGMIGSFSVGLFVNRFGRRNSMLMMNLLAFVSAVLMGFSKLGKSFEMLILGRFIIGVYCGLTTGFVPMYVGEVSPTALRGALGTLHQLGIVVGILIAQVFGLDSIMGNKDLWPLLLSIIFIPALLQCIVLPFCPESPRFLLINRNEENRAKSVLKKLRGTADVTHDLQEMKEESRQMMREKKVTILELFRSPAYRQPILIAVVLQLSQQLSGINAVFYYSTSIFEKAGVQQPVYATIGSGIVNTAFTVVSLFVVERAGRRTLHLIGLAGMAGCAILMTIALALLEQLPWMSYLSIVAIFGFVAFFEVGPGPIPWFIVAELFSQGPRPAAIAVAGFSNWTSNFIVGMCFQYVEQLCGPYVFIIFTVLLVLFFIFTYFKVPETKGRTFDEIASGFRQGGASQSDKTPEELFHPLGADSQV
Experiment notes: ST_JUDE_LEISH: Cytotoxicity at 2uM final concentration against transgenic Leishmania Mexicana promastigotes LmGLUT1 that are glucose transport deficient and complemented with the human glucose transporter GLUT1. Activity is measured by DNA content using SYBR green in vitro
Assay type: functional
# inhibition values compiled below
Numeric answer only, unit % assumed.

Worked examples follow.
Compound	Assay value
CC1CC1C(=O)NC1CCN(CC2(c3ccccc3)CCCCC2)CC1 (stereo not given)	0.87
COc1ccccc1CN1CCC(NC(=O)c2ccc(-c3cccc(Cl)c3)s2)CC1	8.99
CCCCCC(=O)N1CCOC(CCN2CCC(c3ccccc3)CC2)(c2ccc(Cl)c(Cl)c2)C1 (stereo not given)	2.57
CN1CCN(C(C(=O)NCc2cc(Cl)cc(Cl)c2)c2ccccc2-c2ccsc2)CC1 (stereo not given)	4.67
Clc1cccc(Nc2ccc3c(N4CCCCC4)ncnc3n2)c1	12
COc1cc(Cc2cnc(N)nc2N)cc(OC(C)C)c1OC	-0.55
CNc1ccc(CNCc2ccc(-c3ccc(-c4nc5cc(C(F)(F)F)ccc5[nH]4)cc3)cc2)cc1	0.54
Cn1cnc(CCNC(=O)c2ccc(-c3ccc(-c4nc5cc(C(F)(F)F)ccc5[nH]4)s3)cc2)c1	2.93
COc1cc2nc(NCCn3nc(C)cc3C)nc(NCCc3ccccc3)c2cc1OC	-0.49
CC(C)Cn1c(Sc2ccc(C#N)c([N+](=O)[O-])c2)nnc1-c1ccccc1	6.46

Lookup result for "FC(F)(F)Oc1ccc(Nc2cc(-c3ccncc3)nc(-c3cccnc3)n2)cc1" ; measured inhibition: 2.18

Lookup result for CCSc1nnc(C2CCCN(CC(=O)Nc3cc(C(F)(F)F)ccc3Cl)C2)n1CC (stereo not given) ; measured inhibition: 8.8

====

Assay target: Solute carrier family 2, facilitated glucose transporter member 1 (Homo sapiens) (UniProt P11166)
Experiment notes: ST_JUDE_LEISH: Cytotoxicity at 2uM final concentration against transgenic Leishmania Mexicana promastigotes LmGLUT1 that are glucose transport deficient and complemented with the human glucose transporter GLUT1. Activity is measured by DNA content using SYBR green in vitro
Assay type: functional
Reported metric: inhibition (%)
Numeric answer only, unit % assumed.

Worked examples follow.
Molecule	Unit of measurement	inhibition
COc1ccc2nccc([C@@H](O)CN3CCC(NCc4cc5c(cc4F)SCC(=O)N5)CC3)c2n1	%	9.08
COc1ccc2cc(C(=O)Nc3ccc4c(c3)CCN(C3CCC3)CC4)ccc2c1	%	-2.16
Oc1ccccc1CN(CCCN(Cc1ccccn1)Cc1ccccc1O)Cc1ccccn1	%	4.2
CN1CCN(CC(=O)Nc2cccc(-c3cccc(-c4nc5ccccc5[nH]4)c3)c2)CC1	%	-0.57
CN(CCCN(C)c1cc(NC(=O)c2ccc(F)cc2)ccn1)Cc1cccc(O)c1	%	-1.12
Cc1onc(-c2ccccc2)c1-c1nc(NCCC(c2ccccc2)c2ccccc2)no1	%	9.17

# input for lookup
Lookup result for "O=C(NC1CC1)c1cnc(N2CCC(Oc3ccc(Cl)cc3)CC2)c(Cl)c1" ; measured inhibition: 5.36

====

# inhibition values compiled below
Assay target: Hexose transporter 1 (Plasmodium falciparum)
Experiment notes: ST_JUDE_LEISH: Cytotoxicity at 2uM final concentration against transgenic Leishmania Mexicana promastigotes LmPfHT that are glucose transport deficient and complemented with the Plasmodium falciparum hexose transporter. Activity is measured by DNA content using SYBR green in vitro
Type: functional
Numeric answer only, unit % assumed.

inhibition of "Cc1nnsc1C(=O)Nc1cccc(-c2ccc(-c3nc4cccc(C)c4[nH]3)s2)c1" , assay on Hexose transporter 1 (Plasmodium falciparum), is 1.77
